Tested on: BT-549 breast
Test: NCI tumour cell line growth inhibition, 48 h
test-readout: TGI

{"columns": ["compound", "TGI"],
 "data": [
  ["O=C(O)c1ccc(N(/C=C/C(=O)C(F)(F)F)Cc2ccc(Cl)cc2)cc1", "67 µM"]
]}

Please go through the list and note TGI for each compound.
1. Cc1nnc2n1N=C(c1cc(F)c(Cl)cc1Cl)/C(=C/c1ccc(-c3ccc([N+](=O)[O-])cc3)o1)S2
2. CCNC1=C(NC(=O)c2ccc(F)cc2)C(=O)c2ccccc2C1=O
3. COC1=C(C(c2cc(OC)c(OC)c(OC)c2)c2cc3c(cc2OC)OCO3)C(=O)OC1 (stereo not drawn)
4. O=P1(NCCCl)OCCCN1CCCl (stereo not drawn)
5. COC(=O)c1c(O)c(C#N)c2[nH]c3ccccc3n2c1=O

1: > 100 µM; 2: > 100 µM; 3: > 100 µM; 4: > 500 µM; 5: > 100 µM

Take each entry in turn and give its TGI.
1. O=c1c2ccccc2nc(-c2cccc([N+](=O)[O-])c2)n1O
2. O=C(CCCc1ccc(N(CCCl)CCCl)cc1)NCc1ccccc1

1: 80.8 µM; 2: 27.2 µM

----------
Tested on: NCI-H226 lung
Test: NCI tumour cell line growth inhibition, 48 h
Would you mind telling me the reported TGI of each entry?

List TGI for every entry below, keeping the order given.
1. CCN1CCN(CCC(=O)Nc2cccc(-n3cc(-c4ccncc4)c(-c4ccc(Cl)c(OC)c4)n3)c2)CC1
2. CC(C)=CCc1cc2c(cc1O)C1=C(C(=O)C3=C(NCCS3(=O)=O)C1=O)C(C=C(C)C)O2 (stereo not drawn)
3. ClC1=C(Cl)C(Cl)(C2(Cl)C(Cl)=C(Cl)C(Cl)=C2Cl)C(Cl)=C1Cl
4. Cc1c(C(Cc2ccccc2N(C)C(=O)/C=C\C(=O)O)c2c[nH]c3ccccc23)c2ccccc2n1C (stereo not drawn)

7.31 µM
> 16.7 µM
2.74 µM
43 µM

Parameter requested: TGI. Apply to each item below.
1. CN1CCN(Cn2nc(COc3ccccc3Cl)n(/N=C/c3ccc(-c4ccc(Cl)cc4Cl)o3)c2=S)CC1
2. O=C([CH-]C(=O)c1ccccc1)c1ccccc1.O=C([CH-]C(=O)c1ccccc1)c1ccccc1.O=C([CH-]C(=O)c1ccccc1)c1ccccc1.[Ga+3]
3. COc1ccc(-c2cc(N3CCN(c4ccc(Cl)cc4)CC3)c(C#N)c(=O)o2)cc1
4. O=C1C(Cl)C(c2cccc([N+](=O)[O-])c2)N1n1cnc2ccccc2c1=O (stereo not drawn)
5. CC(C)(C)C(=O)/C=C(\OB(F)F)C(C)(C)C
6. CC(C)=CC[C@@H]1CC2(CC=C(C)C)C(=O)C(OC3(C(=O)c4ccccc4)C(=O)C4(CC=C(C)C)C[C@@H](CC=C(C)C)C(C)(C)C(CC=C(C)C)(C4=O)C3=O)(C(=O)c3ccccc3)C(=O)C(CC=C(C)C)(C2=O)C1(C)C (stereo partly drawn)
7. Cc1ccc(N)c(S)c1

> 100 µM
> 100 µM
7.57 µM
> 100 µM
> 100 µM
3.9 µM
49.1 µM

----------
What TGI was measured for each of the following?
Tested on: NCI-H460 lung
Experiment: NCI tumour cell line growth inhibition, 48 h

{"columns": ["compound", "TGI"],
 "data": [
  ["O=c1nc2n(-c3cccc(Cl)c3)c3ccc([N+](=O)[O-])cc3cc-2c(=O)[nH]1", "> 25 µM"],
  ["CN1C2CCC1/C(=C/c1cccc3c1OCO3)C(=O)/C2=C\\c1cccc2c1OCO2", "> 100 µM"],
  ["O=C(O)c1cc(CCc2ccc(O)c(O)c2)ccc1O", "> 100 µM"]
]}

Hi, could you look up TGI for each item in my list?
1. CC1(C)N=C(N)N=C(N)N1c1ccc(OCCCNC(=O)Nc2ccc(S(=O)(=O)F)cc2)c(Cl)c1
2. CCOc1ccc(/C=C2\N=C(c3ccccc3)OC2=O)cc1
3. CC(=O)OCC1OC(N2C(=O)[C@@H](Oc3ccccc3)[C@H]2/C=C/c2ccccc2)C(OC(C)=O)C(OC(C)=O)C1OC(C)=O (some centres not stated)
4. O=C1C2C3C4C1C1C2[C@H](OCc2ccccc2)C3C1[C@H]4OCc1ccccc1 (some centres not stated)
5. C/C(CN1C(=O)c2ccccc2C1=O)=N\NS(=O)(=O)c1ccc2ccccc2c1

1: > 37.6 µM; 2: > 100 µM; 3: > 100 µM; 4: > 100 µM; 5: > 100 µM
